Hey, just so you know, these numbers are from paper PMC5748027.

What inhibition at 10 µM was measured for each of the following?
Study System: human PDE9A (Homo sapiens, UniProt O76083)
Construct: expressed in transfected cells; host or cells: AD293 (transient transfection)
Sequence (O76083 whole entry): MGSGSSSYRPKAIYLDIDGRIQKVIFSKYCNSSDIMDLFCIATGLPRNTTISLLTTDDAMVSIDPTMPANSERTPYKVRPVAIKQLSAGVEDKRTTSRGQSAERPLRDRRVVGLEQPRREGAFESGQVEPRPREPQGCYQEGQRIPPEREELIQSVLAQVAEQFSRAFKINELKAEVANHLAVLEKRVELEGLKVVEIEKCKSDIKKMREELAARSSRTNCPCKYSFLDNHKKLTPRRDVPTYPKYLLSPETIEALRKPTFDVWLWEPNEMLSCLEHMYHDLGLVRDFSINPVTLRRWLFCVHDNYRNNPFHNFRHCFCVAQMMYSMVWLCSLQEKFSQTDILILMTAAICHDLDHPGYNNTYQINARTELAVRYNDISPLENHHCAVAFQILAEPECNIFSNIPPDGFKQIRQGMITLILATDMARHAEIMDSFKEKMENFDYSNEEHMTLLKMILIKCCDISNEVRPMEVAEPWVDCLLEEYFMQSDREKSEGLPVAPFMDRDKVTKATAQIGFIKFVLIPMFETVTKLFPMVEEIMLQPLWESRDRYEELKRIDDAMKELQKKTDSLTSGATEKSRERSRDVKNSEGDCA
Assay Procedure: Phosphodiesterase activity, AD293 cells transiently transfected with human PDE9A
Format: biochemical
Measurement Setup: 10 µM compound; read-out: Percentage inhibition at 10µM (PDE9A)
Procedure: The activity measurements against the phosphodiesterases PDE7A, PDE7B, PDE9A and PDE10A were performed using AD293 cells that were transiently and separately transfected with human PDE7A, PDE7B, PDE9A, and PDE10A following the procedure described by Shipe et al..
Please state the figure in %; there is no need to write the unit.

input: Please give the measured inhibition at 10 µM for this molecule: N#Cc1c(C2CCCCC2)cc(-c2ccccc2)nc1N [Compound 8]
output: 30

input: Please give the measured inhibition at 10 µM for this molecule: N#Cc1c(C2CCCCC2)cc(-c2ccccc2F)nc1N [Compound 9]
output: 1

input: Please give the measured inhibition at 10 µM for this molecule: COc1ccccc1-c1cc(-c2ccccc2F)nc(N)c1C#N [Compound 19]
output: 19

input: Please give the measured inhibition at 10 µM for this molecule: N#Cc1c(-c2ccccc2)cc(-c2nccs2)nc1N [Compound 3]
output: 5

input: Please give the measured inhibition at 10 µM for this molecule: N#Cc1c(-c2ccccc2)cc(-c2ccc(O)cc2)nc1N [Compound 2]
output: 1

input: Please give the measured inhibition at 10 µM for this molecule: N#Cc1c(-c2ccc3c(c2)OCO3)cc(-c2ccccc2)nc1N [Compound 7]
output: 19

input: Please give the measured inhibition at 10 µM for this molecule: N#Cc1c(C2CCCCC2)cc(-c2ccco2)nc1N [Compound 13]
output: 4

input: Please give the measured inhibition at 10 µM for this molecule: N#Cc1c(-c2ccc(O)cc2)cc(-c2ccc(O)cc2)nc1N [Compound 24]
output: 7

input: Please give the measured inhibition at 10 µM for this molecule: COc1ccccc1-c1cc(-c2ccccc2)nc(N)c1C#N [Compound 5]
output: 3

input: Please give the measured inhibition at 10 µM for this molecule: Cn1cccc1-c1cc(-c2ccccc2)c(C#N)c(N)n1 [Compound 4]
output: 2
